- measurement-target: UniProt:P67774
- Sequence (P67774 whole entry): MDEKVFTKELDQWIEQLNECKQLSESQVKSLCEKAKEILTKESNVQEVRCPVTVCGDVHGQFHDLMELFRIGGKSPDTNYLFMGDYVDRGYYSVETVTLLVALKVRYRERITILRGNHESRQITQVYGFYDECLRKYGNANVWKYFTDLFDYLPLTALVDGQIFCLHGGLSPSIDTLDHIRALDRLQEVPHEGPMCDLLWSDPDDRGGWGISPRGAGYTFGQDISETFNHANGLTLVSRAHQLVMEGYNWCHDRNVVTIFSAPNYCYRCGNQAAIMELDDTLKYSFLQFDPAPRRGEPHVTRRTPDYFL
- procedure-text: Phosphatase activity by [32P] release from phosphorylase-a or phosphohistone (Honkanen method)
- Assay type: biochemical
- conditions-used: 100 μM inhibitor; none = 100; read-out: PP2A, percent inhibition relative to control (100%)
result-type: PP2A remaining activity, % of control at 100 µM (%)
Hi! Could you send only the number? It should be in %, unit omitted.

CCCCCCN(CCNC(=O)c1nc(-c2ccccc2)oc1-c1ccccc1)C(=O)CCC(NC(=O)CCc1ccccc1)C(=O)O (stereo not shown): 67
CN(CCNC(=O)c1nc(-c2ccccc2)oc1-c1ccccc1)C(=O)CCC(NC(=O)CCc1ccccc1)C(=O)O (stereo not shown): 72
Cc1oc(-c2ccccc2)nc1C(=O)NCCN(C)C(=O)CCC(NC(=O)C=Cc1ccccc1)C(=O)O (stereo not shown): 108

Query molecule follows.
Query string: Notebook: pull reported PP2A remaining activity, % of control at 100 µM for UniProt:P67774, entry CCCCCCN(CCNC(=O)c1nc(-c2ccccc2)oc1-c1ccccc1)C(=O)CCC(NC(=O)C=Cc1ccccc1)C(=O)O (stereo not shown)
Result string: 60

---

- System: Recombinant human CDC25B
- procedure-text: CDC25B phosphatase assay, GST fusion protein, fluorescein diphosphate
- Format: biochemical
- conditions-used: none = 100; 1 hour preincubation; concentration not given (0.3-100 μM tested)
Measured CDC25B activity remaining, percent of control, listed per entry for reference.
Give just the number in %; leave the unit off.

Use the examples below as a reference point.
Cc1oc(-c2ccccc2)nc1C(=O)NCCN(C)C(=O)CCC(NC(=O)CCc1ccccc1)C(=O)O (centres unmarked) [Compound 1g]: 61
O=C(C=Cc1ccccc1)NC(CCC(=O)N(CCNC(=O)c1nc(-c2ccccc2)oc1-c1ccccc1)Cc1ccccc1)C(=O)O (centres unmarked) [Compound 1r]: 56
CCCCCCN(CCNC(=O)c1nc(-c2ccccc2)oc1-c1ccccc1)C(=O)CCC(NC(=O)CCc1ccccc1)C(=O)O (centres unmarked) [Compound 1k]: 76
CCCCCCN(CCNC(=O)c1nc(-c2ccccc2)oc1C)C(=O)CCC(NC(=O)CCc1ccccc1)C(=O)O (centres unmarked) [Compound 1h]: 69
CCCCCCN(CCNC(=O)c1nc(-c2ccccc2)oc1-c1ccccc1)C(=O)CCC(NC(=O)C=Cc1ccccc1)C(=O)O (centres unmarked) [Compound 1q]: 62
CN(CCNC(=O)c1nc(-c2ccccc2)oc1-c1ccccc1)C(=O)CCC(NC(=O)CCc1ccccc1)C(=O)O (centres unmarked) [Compound 1j]: 90
CCCCCCCCCC(=O)NC(CCC(=O)N(C)CCNC(=O)c1nc(-c2ccccc2)oc1-c1ccccc1)C(=O)O (centres unmarked) [Compound 1d]: 91
CN(CCNC(=O)c1nc(-c2ccccc2)oc1-c1ccccc1)C(=O)CCC(NC(=O)C=Cc1ccccc1)C(=O)O (centres unmarked) [Compound 1p]: 87

Query string: GET /values?readout=CDC25B activity remaining, percent of control&item= CCCCCCCCCC(=O)NC(CCC(=O)N(C)CCNC(=O)c1nc(-c2ccccc2)oc1C)C(=O)O (centres unmarked) [Compound 1a]
Result string: 106

Query string: // repeat for CCCCCCN(CCNC(=O)c1nc(-c2ccccc2)oc1C)C(=O)CCC(NC(=O)C=Cc1ccccc1)C(=O)O (centres unmarked) [Compound 1n] and report
Result string: 66

Query string: Also, CCCCCCCCCC(=O)NC(CCC(=O)N(CCNC(=O)c1nc(-c2ccccc2)oc1-c1ccccc1)Cc1ccccc1)C(=O)O (centres unmarked) [Compound 1f] please.
Result string: 15
